experiment: The drug is tested on WLS-007 corresponding to human gut metagenome with ENA study accession number: PRJEB37062 and ENA sample accession number: ERS12561742 for biotransformation under anaerobic condition. The drug concentrations were measured over 9 timepoints collected between 0 and 24 hours of incubation by liquid-chromatography-coupled mass spectrometry (LC–MS); conditions: 2 µM; note: call rule not given here
observable: Bacterial Biotransformation

INSERT INTO measurements (molecule, reported_value) VALUES
  ('O=C1CN2Cc3c(ccc(Cl)c3Cl)N=C2N1 [ANAGRELIDE]', 'Compound metabolized'),
  ('CN(C)CCC=C1c2ccccc2COc2ccccc21 [DOXEPIN]', 'Compound metabolized'),
  ('COc1cc2nc(N3CCN(C(=O)C4COc5ccccc5O4)CC3)nc(N)c2cc1OC.CS(=O)(=O)O (stereo unspecified) [DOXAZOSIN MESYLATE]', 'Compound metabolized'),
  ('CC12CC3CC(C)(C1)CC(N)(C3)C2 [MEMANTINE]', 'Compound NOT metabolized'),
  ('CN1CCN2c3ccccc3Cc3ccccc3C2C1 (stereo unspecified)', 'Compound NOT metabolized'),
  ('COCCCC/C(=N\OCCN)c1ccc(C(F)(F)F)cc1.O=C(O)/C=C\C(=O)O [FLUVOXAMINE MALEATE]', 'Compound NOT metabolized'),
  ('C#C[C@]1(OC(C)=O)CC[C@H]2[C@@H]3CCC4=C/C(=N/O)CC[C@@H]4[C@H]3CC[C@@]21CC [NORGESTIMATE]', 'Compound metabolized'),
  ('O=C([O-])C[C@H](O)C[C@H](O)/C=C/c1c(C2CC2)nc2ccccc2c1-c1ccc(F)cc1.O=C([O-])C[C@H](O)C[C@H](O)/C=C/c1c(C2CC2)nc2ccccc2c1-c1ccc(F)cc1.[Ca+2]', 'Compound metabolized'),
  ('Cc1nc(Nc2ncc(C(=O)Nc3c(C)cccc3Cl)s2)cc(N2CCN(CCO)CC2)n1 [DASATINIB ANHYDROUS]', 'Compound NOT metabolized'),
  ('CC(=O)OCC(CCn1cnc2cnc(N)nc21)COC(C)=O', 'Compound metabolized'),
  ('CC[C@@]1(O)C(=O)OCc2c1cc1n(c2=O)Cc2cc3c(CN(C)C)c(O)ccc3nc2-1', 'Compound NOT metabolized'),
  ('CC[C@H](C)C(=O)O[C@H]1CCC=C2C=C[C@H](C)[C@H](CC[C@@H]3C[C@@H](O)CC(=O)O3)[C@H]21', 'Compound NOT metabolized'),
  ('CC(=O)O[C@]1(C(C)=O)CC[C@H]2[C@@H]3C=C(C)C4=CC(=O)CC[C@]4(C)[C@H]3CC[C@@]21C [MEGESTROL ACETATE]', 'Compound metabolized'),
  ('O=C(NC(Cc1cc(=O)[nH]c2ccccc12)C(=O)O)c1ccc(Cl)cc1 (stereo unspecified) [REBAMIPIDE]', 'Compound NOT metabolized'),
  ('CCCC(C)(COC(N)=O)COC(=O)NC(C)C (stereo unspecified)', 'Compound metabolized'),
  ('O=C(O)c1cc(/N=N/c2ccc(S(=O)(=O)Nc3ccccn3)cc2)ccc1O', 'Compound metabolized');
